- Tested on: M21
- Assay Details: Cell cycle arrest in human M21 cells assessed as accumulation at G0/G1 phase at 5 times IC50 after 24 hrs using propidium iodide staining by flow cytometric analysis (reference value: 61%)
- Format: functional
Measured Parameter: Activity (%)
Numbers only, in %.

Answered examples (5):
- O=C1NCCN1c1ccc(S(=O)(=O)Oc2ccc(F)cc2F)cc1: 2
- O=C1NCCN1c1ccc(S(=O)(=O)Oc2cc(F)c(F)c(F)c2)cc1: 4
- CCCc1ccc(OS(=O)(=O)c2ccc(N3CCNC3=O)cc2)cc1: 1
- O=C1NCCN1c1ccc(S(=O)(=O)Oc2ccccc2I)cc1: 4
- CCc1ccccc1OS(=O)(=O)c1ccc(N2CCNC2=O)cc1: 0

# map each compound to its Activity
1. O=C1NCCN1c1ccc(S(=O)(=O)Oc2ccc3[nH]ccc3c2)cc1
2. Cc1ccc(OS(=O)(=O)c2ccc(N3CCNC3=O)cc2)c(C)c1

1: 19; 2: 0

# map each compound to its Activity
1. O=C1NCCN1c1ccc(S(=O)(=O)Oc2ccc(F)cc2)cc1
2. O=C1NCCN1c1ccc(S(=O)(=O)Oc2cccc([N+](=O)[O-])c2)cc1
3. Cc1cc(C)cc(OS(=O)(=O)c2ccc(N3CCNC3=O)cc2)c1
4. CCCOc1ccc(OS(=O)(=O)c2ccc(N3CCNC3=O)cc2)cc1

[51, 56, 7, 0]

# map each compound to its Activity
1. O=C1NCCN1c1ccc(S(=O)(=O)Oc2ccc(Cl)cc2)cc1
2. O=C1NCCN1c1ccc(S(=O)(=O)Oc2cc(Cl)cc(Cl)c2)cc1

1: 0; 2: 1
